# Tested system: rat serum albumin (rat, UniProt P02770 25-608)
# Sequence (P02770 25-608 limits assumed): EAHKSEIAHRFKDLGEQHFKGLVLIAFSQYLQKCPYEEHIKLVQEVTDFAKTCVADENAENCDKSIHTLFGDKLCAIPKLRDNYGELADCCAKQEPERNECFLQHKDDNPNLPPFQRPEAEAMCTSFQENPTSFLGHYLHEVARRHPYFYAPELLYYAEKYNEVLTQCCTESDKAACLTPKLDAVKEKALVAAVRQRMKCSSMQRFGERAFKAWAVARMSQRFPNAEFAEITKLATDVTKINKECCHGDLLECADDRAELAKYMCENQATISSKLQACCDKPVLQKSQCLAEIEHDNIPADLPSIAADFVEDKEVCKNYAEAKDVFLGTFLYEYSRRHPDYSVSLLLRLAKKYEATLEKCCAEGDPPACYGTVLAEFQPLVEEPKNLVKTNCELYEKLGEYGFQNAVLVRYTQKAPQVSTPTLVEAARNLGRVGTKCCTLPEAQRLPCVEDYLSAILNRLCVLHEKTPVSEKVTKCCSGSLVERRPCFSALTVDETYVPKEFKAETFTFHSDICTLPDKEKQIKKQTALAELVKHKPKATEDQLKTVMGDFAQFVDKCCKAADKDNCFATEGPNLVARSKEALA
# Procedure summary: binding ELISA, coated albumin, pH 7.4
pEC50: −log10 of the molar value.
Reported metric: pEC50

I = HSA-31 (designed binder) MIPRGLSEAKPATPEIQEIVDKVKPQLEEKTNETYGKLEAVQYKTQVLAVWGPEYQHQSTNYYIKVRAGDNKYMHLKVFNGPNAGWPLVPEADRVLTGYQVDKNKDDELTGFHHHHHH
II = HSA-41 (designed binder, also called HSA-41 parent; HSA-41 AH parent) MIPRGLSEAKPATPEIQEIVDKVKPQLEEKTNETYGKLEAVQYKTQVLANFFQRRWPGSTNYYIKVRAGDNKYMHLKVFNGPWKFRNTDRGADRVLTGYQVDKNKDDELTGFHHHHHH
Please choose the item with the lower pEC50 value from this pair: I and II Lab note: record the label of whichever item you select. II
(II: 8.38, I: 9.41)
